# Test description: PK of single agents vs fixed dose combinations (FDC), single oral dose in healthy volunteers
# Type: in vivo, human
# Condition: human, plasma, oral, Arm 1 (reference): single agents together, SMV 100-mg capsule, ODV 50-mg tablet, two Compound (III) 400-mg tablets; read-out: Cmax (mean ± SD)
Observable: Cmax (ng/mL)

COC(=O)N[C@H](C(=O)N1[C@H](c2nc3cc(-c4cc5ccc4CCc4ccc(c(-c6ccc7[nH]c([C@@H]8C[C@@H]9CCCC[C@@H]9N8C(=O)[C@@H](NC(=O)OC)C(C)C)nc7c6)c4)CC5)ccc3[nH]2)C[C@@H]2CCCC[C@@H]21)C(C)C [ODV, Odalasvir] ... 186

[P] C[C@H](NP(=O)(O)OC[C@@]1(F)O[C@@H](n2ccc(=O)[nH]c2=O)[C@](C)(O)[C@@H]1O)C(=O)O [Compound A-3]
[Q] C[C@]1(O)[C@H](n2ccc(=O)[nH]c2=O)O[C@](F)(CO)[C@H]1O [Compound A-1]
Of P and Q , which shows the smaller Cmax value? Answer by quoting the chosen item's label.
P
(P: 163 ng/mL, Q: 498 ng/mL)
